test.protocol: Hexane solubility; further: key: S: Completely dissolved; C: Dissolved, but insoluble materials remained; I.S.: Substantially not dissolved
Format: physicochemical
condition.label: 43 g sample in 100 g n-hexane at 23° C., stirred 1 hour, naked eye
measured.property: Hexane solubility 43 g

[[record]]
compound = "CCCCCCCCCCCCNc1nc(N(CCCCCCCCCCCC)C2CC(C)(C)NC(C)(C)C2)nc(N(CCCCCCCCCCCC)C2CC(C)(C)NC(C)(C)C2)n1 [Exemplary compound 2]"
observed_result = "S"

[[record]]
compound = "CCCCCCCCCCCCN(CCCNc1nc(N(CCCC)C2CC(C)(C)N(C)C(C)(C)C2)nc(N(CCCC)C2CC(C)(C)N(C)C(C)(C)C2)n1)CCCNc1nc(N(CCCC)C2CC(C)(C)N(C)C(C)(C)C2)nc(N(CCCC)C2CC(C)(C)N(C)C(C)(C)C2)n1 [Exemplary compound 4]"
observed_result = "S"

[[record]]
compound = "CCCCNc1nc(N(CCCC)C2CC(C)(C)NC(C)(C)C2)nc(N(CCCC)C2CC(C)(C)NC(C)(C)C2)n1 [Exemplary compound 10]"
observed_result = "S"


====

So I've got a bunch of compounds here, and I need their Heat resistance 1% by weight reducing temperature values.
test.protocol: Weight reducing temperature at heating (heat resistance, TG-DTA)
Assay type: physicochemical
condition.label: heated at 5° C./minutes under nitrogen

[[record]]
smiles_text = "CCCCCCCCCCCCNC1CC(C)(C)NC(C)(C)C1"
observed_result = "103.3 °C"

[[record]]
smiles_text = "CCCCCCCCCCCCN(c1nc(N(CCCCCCCCCCCC)C2CC(C)(C)NC(C)(C)C2)nc(N(CCCCCCCCCCCC)C2CC(C)(C)NC(C)(C)C2)n1)C1CC(C)(C)NC(C)(C)C1"
observed_result = "246.2 °C"

[[record]]
smiles_text = "CCCCCCCCCCCCN(c1nc(N(CCCCCCCCCCCC)C2CC(C)(C)N(C)C(C)(C)C2)nc(N(CCCCCCCCCCCC)C2CC(C)(C)N(C)C(C)(C)C2)n1)C1CC(C)(C)N(C)C(C)(C)C1"
observed_result = "330.1 °C"


Kindly review the next compound as well.
Recorded result, CCCCN(c1nc(N(CCCC)C2CC(C)(C)N(C)C(C)(C)C2)nc(N(CCCC)C2CC(C)(C)N(C)C(C)(C)C2)n1)C1CC(C)(C)N(C)C(C)(C)C1 , Heat resistance 1% by weight reducing temperature: 250.7 °C

====

test.protocol: Weight reducing temperature at heating (heat resistance, TG-DTA)
Type: physicochemical
condition.label: heated at 5° C./minutes under nitrogen
I'd appreciate it if you could supply Heat resistance 5% by weight reducing temperature values for the items below.
Answers are plain numbers, in °C.

A selection of reference data follows.
[[record]]
smiles_text = "CCCCCCCCN(c1nc(N(CCCCCCCC)C2CC(C)(C)N(C)C(C)(C)C2)nc(N(CCCCCCCC)C2CC(C)(C)N(C)C(C)(C)C2)n1)C1CC(C)(C)N(C)C(C)(C)C1"
observed_result = 340.1

[[record]]
smiles_text = "CC1(C)CC(OC(=O)CCCCCCCCC(=O)OC2CC(C)(C)NC(C)(C)C2)CC(C)(C)N1"
observed_result = 248.4


Respectfully, I request Heat resistance 5% by weight reducing temperature for each entry included below.
1. CCCCCCCCCCCCNc1nc(N(CCCC)C2CC(C)(C)N(C)C(C)(C)C2)nc(N(CCCC)C2CC(C)(C)N(C)C(C)(C)C2)n1
2. CCCCCCCCCCCCNC1CC(C)(C)NC(C)(C)C1
3. CCCCCCCCCCCCN(c1nc(N(CCCCCCCCCCCC)C2CC(C)(C)NC(C)(C)C2)nc(N(CCCCCCCCCCCC)C2CC(C)(C)NC(C)(C)C2)n1)C1CC(C)(C)NC(C)(C)C1
4. CCCCCCCCCCCCN(CCCNc1nc(N(CCCC)C2CC(C)(C)N(C)C(C)(C)C2)nc(N(CCCC)C2CC(C)(C)N(C)C(C)(C)C2)n1)CCCNc1nc(N(CCCC)C2CC(C)(C)N(C)C(C)(C)C2)nc(N(CCCC)C2CC(C)(C)N(C)C(C)(C)C2)n1

Response:
[333.4, 188.1, 377.1, 357.2]

Below are 3 compounds. Give each one its Heat resistance 5% by weight reducing temperature.
1. CCCCN(c1nc(N(CCCC)C2CC(C)(C)N(C)C(C)(C)C2)nc(N(CCCC)C2CC(C)(C)N(C)C(C)(C)C2)n1)C1CC(C)(C)N(C)C(C)(C)C1
2. CCCCCCCCCCCCN(c1nc(N(CCCCCCCCCCCC)C2CC(C)(C)N(C)C(C)(C)C2)nc(N(CCCCCCCCCCCC)C2CC(C)(C)N(C)C(C)(C)C2)n1)C1CC(C)(C)N(C)C(C)(C)C1
3. CCCCCCCCCCCCNc1nc(N(CCCCCCCCCCCC)C2CC(C)(C)NC(C)(C)C2)nc(N(CCCCCCCCCCCC)C2CC(C)(C)NC(C)(C)C2)n1

Response:
320.2
378.2
366.7

Attribution: patent US20100074083A1
